This collection of values is drawn from paper PMC6650976.

Target: the molecule itself
Assay: cross-linking; Ca2+-loaded proteins: 0.02% glutaric aldehyde, 16 h, 20 °C, protein 1 mg/mL, 20 mM Tricine-KOH pH 7.4, 50 mM KCl, 1 mM DTT, 1 mM CaCl2; SDS-PAGE, Coomassie, densitometry; self-association
Measured metric: Trimer 70–100 kDa, % (%)
Please respond with the number in % and leave the unit unwritten.

Which value of Trimer 70–100 kDa, % has been reported for human recoverin mutant F35A (natural protein, UniProt P35243 1-200, looked up, myristoylated (fraction of non-myristoylated forms did not exceed 16%), recoverin, human, UniProt P35243, N-terminal 'black' cluster mutant; Parent construct as m1; source: E. coli, expressed and purified similarly to the rWT protein (phenyl-Sepharose, Toyopearl SuperQ-650M)) MGNSKSGALSKEILEELQLNTKFSEEELCSWYQSALKDCPTGRITQQQFQSIYAKFFPDTDPKAYAQHVFRSFDSNLDGTLDFKEYVIALHMTTAGKTNQKLEWAFSLYDVDGNGTISKNEVLEIVMAIFKMITPEDVKLLPDDENTPEKRAEKIWKYFGKNDDDKLTEKEFIEGTLANKEILRLIQFEPQKVKEKMKNA in the records?
17.8

Which value of Trimer 70–100 kDa, % has been reported for human recoverin mutant F83A (natural protein, UniProt P35243 1-200, looked up, myristoylated (fraction of non-myristoylated forms did not exceed 16%), recoverin, human, UniProt P35243, N-terminal 'black' cluster mutant; Parent construct as m1; source: E. coli, expressed and purified similarly to the rWT protein (phenyl-Sepharose, Toyopearl SuperQ-650M)) MGNSKSGALSKEILEELQLNTKFSEEELCSWYQSFLKDCPTGRITQQQFQSIYAKFFPDTDPKAYAQHVFRSFDSNLDGTLDAKEYVIALHMTTAGKTNQKLEWAFSLYDVDGNGTISKNEVLEIVMAIFKMITPEDVKLLPDDENTPEKRAEKIWKYFGKNDDDKLTEKEFIEGTLANKEILRLIQFEPQKVKEKMKNA in the records?
19.7

Which value of Trimer 70–100 kDa, % has been reported for human recoverin mutant E169A (natural protein, UniProt P35243 1-200, looked up, myristoylated (fraction of non-myristoylated forms did not exceed 16%), recoverin, human, UniProt P35243, C-terminal 'black' cluster mutant; Parent construct as m1; source: E. coli, expressed and purified similarly to the rWT protein (phenyl-Sepharose, Toyopearl SuperQ-650M)) MGNSKSGALSKEILEELQLNTKFSEEELCSWYQSFLKDCPTGRITQQQFQSIYAKFFPDTDPKAYAQHVFRSFDSNLDGTLDFKEYVIALHMTTAGKTNQKLEWAFSLYDVDGNGTISKNEVLEIVMAIFKMITPEDVKLLPDDENTPEKRAEKIWKYFGKNDDDKLTAKEFIEGTLANKEILRLIQFEPQKVKEKMKNA in the records?
29.6
